As shown below, each of these molecules has a reported viability at 48 h, 0.32 nmol value.
- test-summary: Cytotoxicity against human Raji cells assessed as cell viability at 0.32 nmol after 48 hrs by trypan blue assay
- Type: cell-based
- measurement-conditions: read-out: Activity
measurement-label: viability at 48 h, 0.32 nmol

[[record]]
molecule = "CC(C)=CC[C@@H]1C[C@@]2(CC=C(C)C)C(=O)[C@](CC=C(C)C)(C(=O)C(C(=O)c3ccccc3)=C2O)C1(C)C [CLUSIANONE]"
measurement_label = "viability at 48 h, 0.32 nmol"
data_value = "> 80%"

[[record]]
molecule = "COc1cc(C(=O)C2=C3OC(C)(C)[C@@H](CC=C(C)C)C[C@@]34C[C@@H](CC=C(C)C)C(C)(C)[C@@](CC=C(C)C)(C2=O)C4=O)ccc1O"
measurement_label = "viability at 48 h, 0.32 nmol"
data_value = "> 80%"

[[record]]
molecule = "O=C(c1ccc(O)c(O)c1)c1c(O)cc(O)cc1O [MACLURIN]"
measurement_label = "viability at 48 h, 0.32 nmol"
data_value = "> 80%"

